- assayTarget: UT-B (Rattus norvegicus)
- Construct: using erythrocytes, which originally express UT-B; endogenous in cells; host or cells: SD rat erythrocytes (vein blood)
- Sequence (P97689 whole entry): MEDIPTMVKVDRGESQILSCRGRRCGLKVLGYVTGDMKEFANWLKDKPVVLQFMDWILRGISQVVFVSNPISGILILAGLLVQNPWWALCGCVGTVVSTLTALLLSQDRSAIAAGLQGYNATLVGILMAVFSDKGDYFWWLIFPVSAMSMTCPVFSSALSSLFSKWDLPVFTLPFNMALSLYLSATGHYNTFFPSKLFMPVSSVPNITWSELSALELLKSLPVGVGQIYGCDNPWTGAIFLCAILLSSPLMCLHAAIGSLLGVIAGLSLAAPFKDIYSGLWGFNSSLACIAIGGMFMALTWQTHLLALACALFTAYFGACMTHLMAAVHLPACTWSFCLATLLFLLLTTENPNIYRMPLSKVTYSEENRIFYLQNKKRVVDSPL
- methodSummary: erythrocyte osmotic lysis assay, rat erythrocytes
- Format: cell-based
- measurementSetup: mean ± s.e.m., n = 3
- Description: Vein blood was collected from humans, SD rats, wild-type mice or UT-B-null mice as described previously. High-throughput screening assay was performed for identification of UT-B inhibitors using erythrocytes, which originally express UT-B as described previously. […] Erythrocyte lysis was quantified from a single time point measure of absorbance at 710 nm wavelength with a plate reader (BioTek)[27]. […]
quantityMeasured: IC50 (µM)

1) Cc1nc2ccc(NC(=O)c3ccco3)cc2c(=O)n1Cc1ccc(Cl)cc1 [PU468] ... 3.18
2) COc1ccc2nc3sc(C(C)=O)c(N)c3cc2c1 [PU21] ... 2.62

====

- assayTarget: UT-B (Mus musculus, UniProt Q8VHL0)
- Construct: using erythrocytes, which originally express UT-B; endogenous in cells; host or cells: wild-type mouse erythrocytes (vein blood)
- Sequence (Q8VHL0 whole entry): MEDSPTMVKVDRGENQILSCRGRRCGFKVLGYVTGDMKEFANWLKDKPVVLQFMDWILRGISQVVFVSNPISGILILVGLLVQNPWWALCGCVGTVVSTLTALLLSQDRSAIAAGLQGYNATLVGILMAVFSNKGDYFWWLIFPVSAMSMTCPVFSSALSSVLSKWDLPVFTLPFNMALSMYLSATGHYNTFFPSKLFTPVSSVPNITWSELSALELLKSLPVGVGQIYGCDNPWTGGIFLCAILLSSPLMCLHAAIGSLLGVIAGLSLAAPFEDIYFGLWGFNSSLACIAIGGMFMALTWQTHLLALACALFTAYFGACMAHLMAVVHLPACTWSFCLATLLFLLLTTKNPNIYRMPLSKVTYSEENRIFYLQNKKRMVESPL
- methodSummary: erythrocyte osmotic lysis assay, mouse erythrocytes
- Type: cell-based
- measurementSetup: mean ± s.e.m., n = 3
quantityMeasured: IC50 (µM)

1. Cc1nc2ccc(NC(=O)c3ccco3)cc2c(=O)n1Cc1ccc(Cl)cc1 ... 4.13
2. COc1ccc2nc3sc(C(C)=O)c(N)c3cc2c1 ... 4.81

====

- assayTarget: UT-B (Homo sapiens)
- Construct: using erythrocytes, which originally express UT-B; endogenous in cells; host or cells: human erythrocytes (vein blood)
- Sequence (Q13336 1-389): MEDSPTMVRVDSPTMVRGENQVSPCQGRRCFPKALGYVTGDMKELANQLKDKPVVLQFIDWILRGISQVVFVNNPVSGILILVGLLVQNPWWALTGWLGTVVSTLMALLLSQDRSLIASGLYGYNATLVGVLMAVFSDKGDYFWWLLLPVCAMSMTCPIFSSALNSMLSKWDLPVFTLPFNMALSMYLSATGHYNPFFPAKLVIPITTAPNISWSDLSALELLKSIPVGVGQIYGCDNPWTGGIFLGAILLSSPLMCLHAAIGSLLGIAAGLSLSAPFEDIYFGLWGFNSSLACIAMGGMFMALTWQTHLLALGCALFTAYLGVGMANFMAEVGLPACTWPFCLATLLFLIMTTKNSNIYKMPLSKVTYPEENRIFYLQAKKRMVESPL
- methodSummary: erythrocyte osmotic lysis assay, human erythrocytes
- Type: cell-based
- measurementSetup: mean ± s.e.m., n = 3
quantityMeasured: IC50 (µM)

1. Cn1c(=O)c2c(nc(SCC(=O)Nc3cccc(O)c3)n2Cc2ccccc2)n(C)c1=O ... 0.28

I. Cc1nc2ccc(NC(=O)c3ccco3)cc2c(=O)n1Cc1ccc(Cl)cc1
II. COc1ccc2nc3sc(C(C)=O)c(N)c3cc2c1
III. CCN(Cc1ccccc1)[C@H](c1cc2c(C)cc(C)cc2[nH]c1=O)c1nnnn1C[C@@H]1CCCO1
Problem: In this exercise, place the 3 compounds in ascending sequence of their recorded IC50. Answer by listing the labels in the order asked for.
Result: III, II, I

Data credit: paper PMC5376056
